Target: human CD33 K352A (human, UniProt P20138 18-364)
Sequence (P20138 18-364 K352A limits assumed): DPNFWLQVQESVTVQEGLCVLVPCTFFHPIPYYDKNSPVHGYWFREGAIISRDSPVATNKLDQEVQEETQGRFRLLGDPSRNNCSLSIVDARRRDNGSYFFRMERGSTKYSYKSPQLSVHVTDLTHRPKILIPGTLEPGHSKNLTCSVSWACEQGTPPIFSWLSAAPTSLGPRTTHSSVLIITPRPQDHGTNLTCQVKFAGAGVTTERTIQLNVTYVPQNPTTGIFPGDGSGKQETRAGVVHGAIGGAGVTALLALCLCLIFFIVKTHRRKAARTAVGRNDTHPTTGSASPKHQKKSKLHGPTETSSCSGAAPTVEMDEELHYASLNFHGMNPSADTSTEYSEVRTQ
Assay: flow cytometry, alanine scan
QUANTITY: Mean % WT Binding

Below, each entry is followed by its recorded Mean % WT Binding result.
>>> measured("Refmab #4 (antibody, V domains shown, The alanine scan used IgG or Fab) VH: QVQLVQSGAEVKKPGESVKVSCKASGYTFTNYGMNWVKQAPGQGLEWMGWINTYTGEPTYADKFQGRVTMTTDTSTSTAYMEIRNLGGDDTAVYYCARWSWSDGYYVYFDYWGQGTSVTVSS VL: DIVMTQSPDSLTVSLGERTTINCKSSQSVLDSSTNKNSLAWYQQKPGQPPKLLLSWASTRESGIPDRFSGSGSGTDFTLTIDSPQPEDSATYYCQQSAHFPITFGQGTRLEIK")
"103 % of WT"
>>> measured("Refmab #2 (antibody, V domains shown, The alanine scan used IgG or Fab) VH: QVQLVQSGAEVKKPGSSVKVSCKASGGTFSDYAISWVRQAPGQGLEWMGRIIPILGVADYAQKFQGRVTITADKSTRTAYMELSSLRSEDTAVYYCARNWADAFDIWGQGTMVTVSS VL: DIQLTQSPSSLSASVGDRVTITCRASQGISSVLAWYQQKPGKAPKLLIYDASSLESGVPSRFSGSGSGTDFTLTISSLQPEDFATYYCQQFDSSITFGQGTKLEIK")
"113 % of WT"
>>> measured("Refmab #3 (antibody, V domains shown, The alanine scan used IgG or Fab) VH: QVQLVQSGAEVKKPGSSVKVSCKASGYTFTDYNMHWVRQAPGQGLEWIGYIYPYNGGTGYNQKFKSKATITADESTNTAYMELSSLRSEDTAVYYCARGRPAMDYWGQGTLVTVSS VL: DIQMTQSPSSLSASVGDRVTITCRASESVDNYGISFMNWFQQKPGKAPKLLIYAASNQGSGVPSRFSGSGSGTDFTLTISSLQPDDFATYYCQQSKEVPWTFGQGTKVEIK")
"96.3 % of WT"

Prompt: Which Mean % WT Binding value is on record for Refmab #1 (antibody, V domains shown, The alanine scan used IgG or Fab; also called hP67.6) VH: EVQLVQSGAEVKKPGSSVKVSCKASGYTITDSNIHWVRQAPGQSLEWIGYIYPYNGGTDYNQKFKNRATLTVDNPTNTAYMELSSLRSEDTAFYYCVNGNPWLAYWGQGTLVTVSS VL: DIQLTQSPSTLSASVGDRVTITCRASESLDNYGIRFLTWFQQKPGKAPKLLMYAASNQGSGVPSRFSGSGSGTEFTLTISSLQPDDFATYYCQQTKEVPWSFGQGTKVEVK ?
Response: 95.3 % of WT
